Target: T1, Unizyme-tagged human IL-13 (33-146) (human, UniProt P35225 33-146, ALEXA FLUOR 488 or ALEXA FLUOR 647 succinimidyl ester label in the staining and flow cytometry experiments)
T1 construct: range 33-146; The SPR section says only 'Human IL-13'; also called huIL-13; IL-13 antigen; not shown: Unizyme tag
T1 sequence (P35225 33-146, form in doubt): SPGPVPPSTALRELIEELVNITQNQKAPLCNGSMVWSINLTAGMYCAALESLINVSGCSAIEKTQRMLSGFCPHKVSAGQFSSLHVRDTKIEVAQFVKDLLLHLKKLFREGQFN
Experiment: SPR (Biacore 3000), half-antibody from E. coli periplasmic extract captured by Fab Binder, human IL-13 as analyte, 25 C
MEASUREMENT_LABEL: koff (s⁻¹)
Expressed in s⁻¹, but write only the number.

Request: Looking for the measured koff of anti-IL-13 half-antibody framework variant M4L (light chain) (antibody, name in Kabat numbering, V domains shown, Half-antibody) VH: QVTLRESGPALVKPTQTLTLTCTVSGFSLSAYSVNWIRQPPGKALEWLAMIWGDGKIVYNSALKSRLTISKDTSKNQVVLTMTNMDPVDTATYYCAGDGYYPYAMDNWGQGSLVTVSS VL: DIVLTQSPDSLSVSLGERATINCRASKSVDSYGNSFMHWYQQKPGQPPKLLIYLASNLESGVPDRFSGSGSGTDFTLTISSLQAEDVAVYYCQQNNEDPRTFGGGTKVEIK , can you help?
Result: 3.16e-05
